Test system: Saccharomyces cerevisiae BY4741 SeMeCo community
Assay: mean cell size (pixel area) (pixels); higher = larger cells
Conditions: 10 µM; 24 h; SM minimal medium
Counter-ions that a name gives are not always drawn.
mean cell size reference
Could you respond with only the numeric value?

Examples with their reported mean cell size follow.
CN1CCN(c2cc3c(cc2F)c(=O)c(C(=O)O)cn3-c2ccc(F)cc2)CC1 [Difloxacin hydrochloride]    12.1
COC(=O)C1=C(C)NC(C)=C(C(=O)OCCN2CCN(C(c3ccccc3)c3ccccc3)CC2)C1c1cccc([N+](=O)[O-])c1 (stereo not drawn) [Manidipine]    12
CC1=C(C(=O)OC(C)C)C(c2cccc([N+](=O)[O-])c2)C(C(=O)OC2CN(C(c3ccccc3)c3ccccc3)C2)=C(N)N1 (stereo not drawn) [Azelnidipine]    12.5
CC(=O)OCC(COC(C)=O)OC(C)=O [Triacetin]    12.4
CS(=O)(=O)c1ccc(C2=C(c3ccccc3)C(=O)OC2)cc1 [Rofecoxib]    12.3
C[N+]1(C)[C@@H]2CC[C@H]1C[C@@H](OC(=O)C(O)c1ccccc1)C2 (stereo partly drawn) [Homatropine Methylbromide]    12.4
CCN(CC)CCNC(=O)c1cc(Cl)c(N)cc1OC [Metoclopramide]    12

In the following, a different compound is considered.
# mean cell size lookup, item O=C(O)Cc1ccccc1Nc1c(Cl)cccc1Cl [Diclofenac Sodium]
12.7

* * *

z-score of subpopulation abundance reference
Test system: Saccharomyces cerevisiae BY4741 SeMeCo community
Assay: z-score of subpopulation abundance vs DMSO median, subpopulation auxotrophic for U; higher = larger share of this subpopulation than in DMSO controls
Conditions: 10 µM; 24 h; SM minimal medium; subpopulation (auxotrophy): U
Counter-ions that a name gives are not always drawn.
Could you respond with only the numeric value?

Examples with their reported z-score of subpopulation abundance follow.
Nc1nc(=O)[nH]cc1F    0.5
CC[N+](CC)(CC)CCOc1cccc(OCC[N+](CC)(CC)CC)c1OCC[N+](CC)(CC)CC [Gallamine Triethiodide]    0.76
CN[C@H](CC(C)C)C(=O)N[C@H]1C(=O)N[C@@H](CC(N)=O)C(=O)N[C@H]2C(=O)N[C@H]3C(=O)N[C@H](C(=O)N[C@H](C(=O)O)c4cc(O)cc(O)c4-c4cc3ccc4O)[C@H](O)c3ccc(c(Cl)c3)Oc3cc2cc(c3O[C@@H]2O[C@H](CO)[C@@H](O)[C@H](O)[C@H]2O[C@H]2C[C@](C)(N)[C@H](O)[C@H](C)O2)Oc2ccc(cc2Cl)[C@H]1O [Vancomycin HCl]    -0.35
COC(=O)C1=C(C)NC(C)=C(C(=O)OC(C)C)C1c1cccc2nonc12 (configuration not stated)    0.74
CS(=O)(=O)Nc1ccc([N+](=O)[O-])cc1Oc1ccccc1 [Nimesulide]    -0.45

Param readout= z-score of subpopulation abundance; system= Saccharomyces cerevisiae BY4741 SeMeCo community; entry= Cc1[nH]cnc1CN1CCc2c(c3ccccc3n2C)C1=O [Alosetron Hydrochloride] ; returns value.
1.4

Subsequent entry: C1CCN2C[C@@H]3C[C@@H](CN4CCCC[C@@H]34)[C@H]2C1 [(-)-Sparteine Sulfate]
-0.7

* * *

Tested on: Saccharomyces cerevisiae BY4741 SeMeCo community
Experiment: mean cell size (pixel area) (pixels); higher = larger cells
Details: 10 µM; 24 h; SM minimal medium
Counter-ions that a name gives are not always drawn.
Quantity: mean cell size
Could you respond with only the numeric value?

Examples with their reported mean cell size follow.
C[C@@H](O)[C@H]1C(=O)N2C(C(=O)O)=C([C@H]3CCCO3)S[C@H]12 [Faropenem Sodium]    12.4
CC[C@H]1OC(=O)C[C@@H](O)[C@H](C)[C@@H](O[C@@H]2O[C@H](C)[C@@H](O)[C@H](N(C)C)[C@H]2O)[C@@H](CCN2C[C@H](C)C[C@H](C)C2)C[C@@H](C)C(=O)/C=C/C(C)=C/[C@@H]1CO[C@@H]1O[C@H](C)[C@@H](O)[C@@H](OC)[C@H]1OC [Tilmicosin]    12.4
Oc1c(Cl)cc(Cl)cc1Sc1cc(Cl)cc(Cl)c1O    12.4
CN1[C@@H](CC(=O)c2ccccc2)CCC[C@H]1C[C@H](O)c1ccccc1 [Lobeline hydrochloride]    12.5
Cc1nc2n(c(=O)c1CCN1CCC(c3noc4cc(F)ccc34)CC1)CCCC2O (stereo not drawn)    12
CN(C)[C@@H](CCOc1cccc2ccccc12)c1ccccc1 [Dapoxetine HCl]    12.3
CC1(C)S[C@@H]2[C@H](NC(=O)C(C(=O)O)c3ccccc3)C(=O)N2[C@H]1C(=O)O (stereo partly drawn) [Carbenicillin disodium]    12.5

In the following, a different compound is considered.
# mean cell size lookup, item COc1ccc(C(Cl)=C(c2ccc(OC)cc2)c2ccc(OC)cc2)cc1
12.6

* * *

z-score of subpopulation abundance reference
Tested on: Saccharomyces cerevisiae BY4741 SeMeCo community
Assay: z-score of subpopulation abundance vs DMSO median, subpopulation auxotrophic for L; higher = larger share of this subpopulation than in DMSO controls
Details: 10 µM; 24 h; SM minimal medium; subpopulation (auxotrophy): L
Structures can show the parent of a compound that is named as a salt.

Examples with their reported z-score of subpopulation abundance follow.
CC1(C)S[C@@H]2[C@H](NC(=O)[C@H](NC(=O)N3CCN(S(C)(=O)=O)C3=O)c3ccccc3)C(=O)N2[C@H]1C(=O)O [Mezlocillin Sodium]    0.24
COC(=O)C1=C(C)NC(C)=C(C(=O)OCC(C)C)C1c1ccccc1[N+](=O)[O-] (configuration not stated)    0.49
CCC(=O)Oc1ccc2c(c1)CCC1C2CCC2(C)C(OC(=O)CC)CCC12 (stereo not drawn) [Estradiol dipropionate(17-Beta-Estradiol-3,17-Dipropionate)]    -1.37
c1cnc2cc3c(cc2n1)[C@@H]1CNC[C@H]3C1 [Varenicline Tartrate]    -0.32
O=c1n(CCCN2CCN(c3cccc(Cl)c3)CC2)nc2ccccn12 [Trazodone HCl]    -1.59

# z-score of subpopulation abundance lookup, item CN(CCN1CCC(OC(=O)Nc2ccccc2-c2ccccc2)CC1)C(=O)c1ccc(CN2CCC(C(N)=O)CC2)cc1
-0.42

Subsequent entry: NC(=O)Cc1cccc(C(=O)c2ccccc2)c1N
1.39

* * *

System: Saccharomyces cerevisiae BY4741 SeMeCo community
Assay: z-score of subpopulation abundance vs DMSO median, subpopulation auxotrophic for LUM; higher = larger share of this subpopulation than in DMSO controls
Conditions: 10 µM; 24 h; SM minimal medium; subpopulation (auxotrophy): LUM
Structures can show the parent of a compound that is named as a salt.
z-score of subpopulation abundance reference
Could you respond with only the numeric value?

Examples with their reported z-score of subpopulation abundance follow.
Cc1nc(C)c(Cl)c(O)c1Cl    -0.04
CN(C)CC(c1ccc(O)cc1)C1(O)CCCCC1 (stereo not given)    -0.64
N=C(N)NC(=O)c1nc(Cl)c(N)nc1N [Amiloride HCl]    0.19
O=S1(=O)CCN(CN2CCS(=O)(=O)NC2)CN1    -0.43

# z-score of subpopulation abundance lookup, item CN(CCN1CCC(OC(=O)Nc2ccccc2-c2ccccc2)CC1)C(=O)c1ccc(CN2CCC(C(N)=O)CC2)cc1
0.17

* * *

Tested on: Saccharomyces cerevisiae BY4741 SeMeCo community
Test: z-score of subpopulation abundance vs DMSO median, subpopulation auxotrophic for LM; higher = larger share of this subpopulation than in DMSO controls
Conditions: 10 µM; 24 h; SM minimal medium; subpopulation (auxotrophy): LM
Counter-ions that a name gives are not always drawn.
Quantity: z-score of subpopulation abundance
Could you respond with only the numeric value?

O=C(c1ccc(OCCN2CCCCC2)cc1)c1c(-c2ccc(O)cc2)sc2cc(O)ccc12 [Raloxifene]    0.49
c1ccc2[nH]c(-c3cscn3)nc2c1    0.06
CCN(CC)CCOC(=O)c1ccc(N)cc1    -0.46

# z-score of subpopulation abundance lookup, item OB1OCc2cc(F)ccc21
6.17

Subsequent entry: O=C(O)CCC(=O)Nc1ccc(S(=O)(=O)Nc2nccs2)cc1
-0.35

Subsequent entry: CCOC(=O)C1=C(COCCN)NC(C)=C(C(=O)OC)C1c1ccccc1Cl (stereo not given) [Amlodipine]
8.35

Subsequent entry: Nc1c(Br)cc(Br)cc1CN[C@H]1CC[C@H](O)CC1 [Ambroxol HCl]
-0.43

* * *

z-score of subpopulation abundance reference
System: Saccharomyces cerevisiae BY4741 SeMeCo community
Assay: z-score of subpopulation abundance vs DMSO median, subpopulation auxotrophic for UM; higher = larger share of this subpopulation than in DMSO controls
Conditions: 10 µM; 24 h; SM minimal medium; subpopulation (auxotrophy): UM
Where a name gives a salt, the structure may show the parent alone.
Could you respond with only the numeric value?

Examples with their reported z-score of subpopulation abundance follow.
C=C[C@H]1CN2CC[C@H]1C[C@@H]2[C@@H](O)c1ccnc2ccc(OC)cc12 [Quinidine sulfate]    0.08
Cc1nc(NC(=O)N2CCC[C@H]2C(N)=O)sc1-c1ccnc(C(C)(C)C(F)(F)F)c1    0.25
CCCCN(CCCC)CC(O)c1cc(Cl)cc2c1-c1ccc(Cl)cc1/C2=C/c1ccc(Cl)cc1 (centres undefined)    2.56
CC(=O)OC1CC2(C)C(CC(O)C3C4(C)CCC(O)C(C)C4CCC32C)C1=C(CCC=C(C)C)C(=O)O (centres undefined)    -0.42
Nc1ccc(S(=O)(=O)Nc2ccccn2)cc1    -0.75

# z-score of subpopulation abundance lookup, item OCCN1CCN(CC/C=C2/c3ccccc3Sc3ccc(C(F)(F)F)cc32)CC1 [Flupenthixol dihydrochloride]
-0.35

Subsequent entry: C=CC[N+]1([C@H]2C[C@H]3[C@@H]4CC[C@H]5C[C@H](O)[C@@H](N6CCOCC6)C[C@]5(C)[C@H]4CC[C@]3(C)[C@H]2OC(C)=O)CCCC1 [Rocuronium Bromide]
-0.71

Subsequent entry: O=C(O)CCCCCCCC(=O)O
-0.2
